Property: normalized growth; scope: individual compounds
- method.description: chemical genetic growth profiling, strain panel (AID 1159580);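 further: tested at 20 µM; growth read once vehicle control cultures reached saturation at 30 °C; 1 = growth at the plate median or of vehicle wells; lower values mean less growth of the strain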
- details: S. cerevisiae deletion strains, growth OD, locus YPL055C, strain LGE1, active compounds read low
Among all 5,500 compounds or so, about 2,000 (36%) were called active. Not shown: some 18% with an inconclusive outcome. The list shows a part of the results.
Answer using only a numeral; do not append any unit.

Query: normalized growth; subject: CC(=O)c1sc(SCc2ccc(Cl)cc2)c2c1CC(C)(C)CC2=O
1.12

Also CN(/N=C\c1ccccc1)c1ncc(C(F)(F)F)cc1Cl , if possible.
0.901

---

Property: normalized growth; scope: individual compounds
- method.description: chemical genetic growth profiling, strain panel (AID 1159580);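 further: tested at 20 µM; growth read once vehicle control cultures reached saturation at 30 °C; 1 = growth at the plate median or of vehicle wells; lower values mean less growth of the strain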
- details: S. cerevisiae deletion strains, growth OD, locus YNL322C, strain KRE1, active compounds read low
Screen size: about 5,500 compounds; about 2,000 (36%) were called active. Not shown: some 18% with an inconclusive outcome. This is one part of the list.
Answer using only a numeral; do not append any unit.

{"compound": "CCC[C@H]1CC2=C(C[C@@H](CC)CC3=C1C(=O)OC3=O)C(=O)OC2=O", "normalized growth": 1.01}

Query: normalized growth; subject: CCCC(C)C1(CC)C(=O)NC(=O)NC1=O (configuration not stated)
1.01

Also COc1ccc(CCNC(=S)Nc2cccc(C(F)(F)F)c2)cc1OC , if possible.
0.996

Also CCC(C(=O)Nc1ccc(C(F)(F)F)cc1)c1ccccc1 (configuration not stated) , if possible.
0.99

Measured values drawn from PubChem BioAssay AID1159580 for this set.
